target: human adrenergic beta2 receptor (Homo sapiens, UniProt P07550); construct: purchased Perkin Elmer; host or cells: Sf9 cells (membranes); experiment: Human adrenergic β2 receptor binding assay (3H-CGP12177, Sf9 membranes)
Sequence (P07550 whole entry): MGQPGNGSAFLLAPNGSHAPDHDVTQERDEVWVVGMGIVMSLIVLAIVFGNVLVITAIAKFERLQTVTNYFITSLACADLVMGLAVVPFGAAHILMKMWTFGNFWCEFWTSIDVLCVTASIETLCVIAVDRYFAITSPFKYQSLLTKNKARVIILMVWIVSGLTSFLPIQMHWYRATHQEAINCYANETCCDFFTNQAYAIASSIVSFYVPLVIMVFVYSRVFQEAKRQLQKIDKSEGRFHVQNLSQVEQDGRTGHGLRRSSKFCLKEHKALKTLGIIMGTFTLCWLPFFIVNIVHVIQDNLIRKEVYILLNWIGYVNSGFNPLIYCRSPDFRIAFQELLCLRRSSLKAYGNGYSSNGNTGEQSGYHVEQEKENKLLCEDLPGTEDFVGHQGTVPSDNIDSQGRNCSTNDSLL

{"columns": ["COMPOUND", "IC50"],
 "data": [
  ["COc1cc(-c2noc(CCCN(C)[C@H]3CC[C@H](OC(=O)C(O)(c4cccs4)c4cccs4)CC3)n2)c(Cl)cc1CNC[C@H](O)c1ccc(O)c2[nH]c(=O)ccc12 [Example 9]", "2.2 nM"],
  ["CN(CCCn1c(=O)[nH]c2cc(CNC[C@H](O)c3ccc(O)c4[nH]c(=O)ccc34)ccc21)[C@H]1CC[C@H](OC(=O)C(O)(c2cccs2)c2cccs2)CC1 [Example 2]", "120 nM"],
  ["COc1cc(OCC(=O)N(C)CCN(C)[C@H]2CC[C@H](OC(=O)C(O)(c3cccs3)c3cccs3)CC2)c(Cl)cc1CNC[C@H](O)c1ccc(O)c2[nH]c(=O)ccc12 [Example 10]", "5.7 nM"]
]}
